# System: OVCAR-3 ovarian
# assay: NCI tumour cell line growth inhibition, 48 h; in the data active = GI50 below about 0.43 µM; inactive = the rest
Outcomes: true = active, false = inactive

>>> label_value("O=C(Nc1ccc(Br)cc1F)c1cc(Br)ccc1O")
"false"
>>> label_value("COc1cc(C2C(C#N)=C(N)Oc3cc(O)ccc32)cc(OC)c1OC (stereo not given)")
"true"
>>> label_value("Cc1nn(-c2ccc(Br)cc2)c(C)c1CC(=O)c1cc(O)ccc1O")
"false"
>>> label_value("O=CC1(C2(C=O)c3ccccc3-c3ccccc32)c2ccccc2-c2ccccc21")
"false"
>>> label_value("C[C@@]1(N2C(=O)OC[C@@H]2c2ccccc2)C(=O)N([C@H](CC(=O)N2CCC(N3CCCCC3)CC2)C(=O)NCc2cccc(C(F)(F)F)c2)[C@@H]1/C=C/c1ccccc1")
"false"
